// values below are reported fluorescence interference ratio
Assay: compounds quenching or enhancing NS3h-DNA Cy5 signal – biochemical, ChemBridge library, Cy5-DNA-NS3h complex, artefact control for HCV NS3 helicase inhibitor project, confirmation (AID 720489);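 further: ratio of compound fluorescence to mean of negative controls so 1 means no interference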
Details: Cy5-dT15 DNA/NS3h fluorescence interference counterscreen; at 100 µM
Some of the results follow.
Lab note: record the figure alone, no unit after it.

Examples from the recorded data:
// returns reported fluorescence interference ratio for input O=c1c2c(nc3cc(-c4cccc(F)c4)[nH]n13)CCS2 0.718

Can you check CC(C)(C)N1C(=O)NC(=O)C(=Cc2cccs2)C1=O next? 0.788

How about this compound: COc1ccc(C(=O)Oc2ccc3oc(=O)cc(C)c3c2)cc1OC 0.772

One more compound: Cc1ccc(C(=O)NCCNc2ccc([N+](=O)[O-])cc2)cc1 0.955

Same for CCN(CC)c1ccc(NC(=O)/C(=C\c2ccccc2)NC(C)=O)cc1 1.09

// same read-out, input: O=C(NC(=S)Nc1ccc(-c2nc3cc(Cl)ccc3o2)cc1)c1ccco1 1.01

Please look at the following compound next.
Any idea what fluorescence interference ratio was measured for COc1cc(C=C2C(=O)NC(=O)NC2=O)ccc1OCCOc1ccc([N+](=O)[O-])cc1 ? 0.667
